Exercise: for every item that follows, state its recorded protein stability index.
B1: VTI1B (parent)
chain: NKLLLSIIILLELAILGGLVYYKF

# Variants of: B1
# assay-procedure: protein stability index of a GFP-peptide fusion (GPS, HEK-293T) (PSI 1-6); higher = more stable;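 note: lentivirally expressed fusions sorted by FACS into six bins by GFP to DsRed ratio, PSI derived from sequencing read proportions per bin multiplied by bin number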
# measurement-conditions: c terminus: a fixed tail appended
Give bare numbers.

Illustrative cases are given below, each with its answer.
In [3]: df
Out[3]:
   variant_key  recorded_value
0          S6N            2.47
1         L10A            2.44
2          L5W            1.86
3          S6Y            2.76
4          I9Q            3.18
5         K23D            2.65

For each of the variants below, state protein stability index.
1. K2T
2. G17Q
3. S6R
4. I15V
5. E12H
6. I8N
7. I9V

[2.66, 3.08, 3.55, 4.17, 2.64, 3.11, 3.42]
